B1: PPFIA4 (parent)
chain: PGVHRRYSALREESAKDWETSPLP

Variants of: B1
Test: protein stability index of a GFP-peptide fusion (GPS, HEK-293T) (PSI 1-6); higher = more stable;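 note: lentivirally expressed fusions sorted by FACS into six bins by GFP to DsRed ratio, PSI derived from sequencing read proportions per bin multiplied by bin number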
Conditions: c terminus: a fixed tail appended
Met means recorded protein stability index is 4 or above; Not met means it is below 4.

Variant Key: K16Q
Cat: Not met

Variant Key: L23I
Cat: Met

Variant Key: A15T
Cat: Met

Variant Key: P22H
Cat: Met

Variant Key: G2D
Cat: Met

// data source = the supplement of paper PMC10567573
